# TARGET SYSTEM: Jack bean α-mannosidase (JBMan) (Canavalia ensiformis)
# Construct: purchased
# PROCEDURE SUMMARY: Inhibition of jack bean α-mannosidase (JBMan), pNP-Man substrate
# Assay type: biochemical
# ASSAY CONDITIONS: pH 5, 2 mM inhibitor, n.i. = no inhibition, 2 mM pNP-Man, read-out: JBMan (%) inhibition in the presence of 2 mM inhibitor concentration
inhibition at 2000 µM by entry:
Give the quantity in %, number only.

Solved cases (3 shown):
C[C@H](O)[C@H]1[C@@H](O)[C@@H](O)CN1Cc1ccccc1 [Compound 5a]: 21
CC[C@H]1[C@@H](O)[C@@H](O)CN1Cc1ccc(Br)cc1 [Compound 3b]: 14
C[C@@H](O)[C@H]1[C@@H](O)[C@@H](O)CN1Cc1ccc(I)cc1 [Compound 4c]: 17

inhibition at 2000 µM lookup needed for CC[C@H]1[C@@H](O)[C@@H](O)CN1Cc1ccc(I)cc1 [Compound 3c] , thanks.
39

Quick one: CC[C@H]1[C@@H](O)[C@@H](O)CN1Cc1ccccc1 [Compound 3a]
3

Quick one: C[C@@H](O)[C@H]1[C@@H](O)[C@@H](O)CN1Cc1ccc(Br)cc1 [Compound 4b]
4

Quick one: C[C@@H](O)[C@H]1[C@@H](O)[C@@H](O)CN1Cc1ccccc1 [Compound 4a]
2

Quick one: C[C@H](O)[C@H]1[C@@H](O)[C@@H](O)CN1Cc1ccc(Br)cc1 [Compound 5b]
40

Quick one: C[C@H](O)[C@H]1[C@@H](O)[C@@H](O)CN1Cc1ccc(I)cc1 [Compound 5c]
40

* * *

# TARGET SYSTEM: Drosophila melanogaster Golgi α-mannosidase II (GMIIb) (Drosophila melanogaster)
# PROCEDURE SUMMARY: Inhibition of Golgi α-mannosidase II (GMIIb), pNP-Man substrate
# Type: biochemical
# ASSAY CONDITIONS: 2 mM pNP-Man, pH 6.0; read-out: GMIIb IC50
pIC50: −log10 of the molar value.
MEASURED PARAMETER: pIC50

pIC50 lookup needed for CC[C@H]1[C@@H](O)[C@@H](O)CN1Cc1ccc(I)cc1 , thanks.
> 3.30

* * *

# TARGET SYSTEM: Jack bean α-mannosidase (JBMan) (Canavalia ensiformis, UniProt C0HJB3)
# Construct: purchased
# Sequence (C0HJB3 whole entry): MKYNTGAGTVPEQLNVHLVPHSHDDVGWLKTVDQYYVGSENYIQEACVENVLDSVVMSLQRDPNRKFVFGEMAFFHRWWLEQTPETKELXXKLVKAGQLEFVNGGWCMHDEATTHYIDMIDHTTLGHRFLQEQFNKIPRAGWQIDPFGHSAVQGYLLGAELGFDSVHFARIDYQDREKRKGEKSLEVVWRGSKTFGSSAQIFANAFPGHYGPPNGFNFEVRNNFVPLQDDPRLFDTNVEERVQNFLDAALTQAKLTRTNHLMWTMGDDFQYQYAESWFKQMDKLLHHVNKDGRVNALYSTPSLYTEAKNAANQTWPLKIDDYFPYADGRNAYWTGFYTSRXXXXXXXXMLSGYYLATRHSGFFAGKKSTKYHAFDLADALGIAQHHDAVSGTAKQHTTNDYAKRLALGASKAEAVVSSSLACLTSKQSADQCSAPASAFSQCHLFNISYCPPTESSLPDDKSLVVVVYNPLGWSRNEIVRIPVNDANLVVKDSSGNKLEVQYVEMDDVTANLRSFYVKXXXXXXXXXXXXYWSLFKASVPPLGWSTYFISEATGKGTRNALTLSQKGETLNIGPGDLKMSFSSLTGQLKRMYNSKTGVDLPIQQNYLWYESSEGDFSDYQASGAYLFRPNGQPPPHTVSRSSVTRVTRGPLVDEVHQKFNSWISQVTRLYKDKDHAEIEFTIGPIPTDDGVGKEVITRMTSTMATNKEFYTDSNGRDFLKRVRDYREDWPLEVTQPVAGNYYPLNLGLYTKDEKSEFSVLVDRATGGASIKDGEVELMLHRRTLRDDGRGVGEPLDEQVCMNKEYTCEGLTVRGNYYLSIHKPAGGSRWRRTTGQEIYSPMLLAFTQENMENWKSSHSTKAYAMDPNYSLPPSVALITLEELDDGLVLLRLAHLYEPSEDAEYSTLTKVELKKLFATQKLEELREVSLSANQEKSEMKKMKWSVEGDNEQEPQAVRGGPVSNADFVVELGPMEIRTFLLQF
# PROCEDURE SUMMARY: Inhibition of jack bean α-mannosidase (JBMan), pNP-Man substrate
# Assay type: biochemical
# ASSAY CONDITIONS: 2 mM inhibitor; n.i. = no inhibition; 2 mM pNP-Man, pH 5.0
MEASURED PARAMETER: JBMan (%) inhibition in the presence of 2 mM inhibitor concentration

C[C@H]1[C@@H](O)[C@@H](O)CN1Cc1ccccc1 [Compound 2a]: n.i.
C[C@H](O)[C@H]1[C@@H](O)[C@@H](O)CN1Cc1ccc(I)cc1 [Compound 5c]: 38%
C[C@H]1[C@@H](O)[C@@H](O)CN1Cc1ccc(Br)cc1 [Compound 2b]: n.i.
C[C@H]1[C@@H](O)[C@@H](O)CN1Cc1ccc(I)cc1 [Compound 2c]: n.i.

* * *

# TARGET SYSTEM: Drosophila melanogaster Golgi α-mannosidase II (GMIIb) (Drosophila melanogaster, UniProt Q9VF33)
# Sequence (Q9VF33 entry or part of it): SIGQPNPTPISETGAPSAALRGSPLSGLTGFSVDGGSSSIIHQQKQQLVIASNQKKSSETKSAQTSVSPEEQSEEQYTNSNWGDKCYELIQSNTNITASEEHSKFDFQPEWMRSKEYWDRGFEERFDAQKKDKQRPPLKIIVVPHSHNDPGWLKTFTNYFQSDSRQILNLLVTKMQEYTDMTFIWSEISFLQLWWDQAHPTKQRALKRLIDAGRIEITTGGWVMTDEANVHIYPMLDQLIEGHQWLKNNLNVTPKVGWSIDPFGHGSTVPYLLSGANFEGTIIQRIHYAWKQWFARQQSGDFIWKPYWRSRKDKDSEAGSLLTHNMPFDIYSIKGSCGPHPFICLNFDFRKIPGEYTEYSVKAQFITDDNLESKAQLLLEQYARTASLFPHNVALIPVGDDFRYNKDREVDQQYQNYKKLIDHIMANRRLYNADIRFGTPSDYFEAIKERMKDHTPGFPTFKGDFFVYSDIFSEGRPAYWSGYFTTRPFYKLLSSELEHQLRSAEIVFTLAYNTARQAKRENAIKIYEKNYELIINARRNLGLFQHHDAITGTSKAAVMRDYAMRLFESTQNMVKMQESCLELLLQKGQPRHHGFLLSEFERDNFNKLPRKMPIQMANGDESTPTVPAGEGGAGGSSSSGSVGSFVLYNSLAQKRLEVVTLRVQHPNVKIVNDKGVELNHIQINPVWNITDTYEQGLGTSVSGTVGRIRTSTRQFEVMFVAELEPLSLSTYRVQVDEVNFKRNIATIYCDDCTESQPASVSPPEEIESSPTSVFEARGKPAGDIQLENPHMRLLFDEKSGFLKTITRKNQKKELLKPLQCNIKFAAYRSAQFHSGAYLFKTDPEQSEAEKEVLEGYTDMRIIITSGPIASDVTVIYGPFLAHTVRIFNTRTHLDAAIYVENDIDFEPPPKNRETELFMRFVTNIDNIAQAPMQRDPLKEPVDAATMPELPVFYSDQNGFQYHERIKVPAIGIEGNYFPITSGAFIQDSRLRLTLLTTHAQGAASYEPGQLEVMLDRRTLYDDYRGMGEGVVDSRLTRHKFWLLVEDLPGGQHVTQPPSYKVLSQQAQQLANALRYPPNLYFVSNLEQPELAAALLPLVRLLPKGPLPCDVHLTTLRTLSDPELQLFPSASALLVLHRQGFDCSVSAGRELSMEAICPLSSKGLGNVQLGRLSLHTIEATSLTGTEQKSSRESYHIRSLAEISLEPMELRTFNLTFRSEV
# PROCEDURE SUMMARY: Inhibition of Golgi α-mannosidase II (GMIIb), pNP-Man substrate
# Assay type: biochemical
# ASSAY CONDITIONS: 2 mM pNP-Man, pH 6.0, 0.5 mM CoCl2, 37 °C; read-out: GMIIb [IC50 (M)]
Assign labels as follows, please: 1 (yes) for IC50 below 0.0004 M; 0 (no) for IC50 equal to or exceeding 0.0004 M.

Take a look at these entries with their results.
C[C@H](O)[C@H]1[C@@H](O)[C@@H](O)CN1Cc1ccccc1: 0 (no)
C[C@H]1[C@@H](O)[C@@H](O)CN1Cc1ccc(I)cc1: 1 (yes)
C[C@@H](O)[C@H]1[C@@H](O)[C@@H](O)CN1Cc1ccc(I)cc1: 0 (no)
CC[C@H]1[C@@H](O)[C@@H](O)CN1Cc1ccc(Br)cc1: 0 (no)
C[C@H]1[C@@H](O)[C@@H](O)CN1Cc1ccccc1: 1 (yes)

For this compound, is IC50 lower than 0.0004 M? C[C@H](O)[C@H]1[C@@H](O)[C@@H](O)CN1Cc1ccc(I)cc1
0 (no)

Quick one: C[C@H]1[C@@H](O)[C@@H](O)CN1Cc1ccc(Br)cc1
1 (yes)

Quick one: CC[C@H]1[C@@H](O)[C@@H](O)CN1Cc1ccccc1
0 (no)

Quick one: C[C@@H](O)[C@H]1[C@@H](O)[C@@H](O)CN1Cc1ccccc1
0 (no)

Quick one: C[C@H](O)[C@H]1[C@@H](O)[C@@H](O)CN1Cc1ccc(Br)cc1
0 (no)

Quick one: CC[C@H]1[C@@H](O)[C@@H](O)CN1Cc1ccc(I)cc1
0 (no)

Quick one: C[C@@H](O)[C@H]1[C@@H](O)[C@@H](O)CN1Cc1ccc(Br)cc1
0 (no)
